Every entry's value here was drawn from patent US12448369B2.

Tested on: Rabbit Psoas myofibrils (skeletal myosin ATPase)
experiment-notes: Myofibril ATPase assay, rabbit psoas (skeletal) myofibrils
Type: biochemical
measurement-conditions: rabbit psoas myofibrils; Y75 value
readout-type: Skeletal EC25 (µM)

{"columns": ["molecule", "Skeletal EC25 [µM]"],
 "data": [
  ["Cc1nccc2[nH]c(=O)c(CC(=O)N[C@H](CO)c3ccc(F)cc3F)c(C)c12", 7.2]
]}

1 = Cc1c(CC(=O)N[C@H](C)c2ccc(C#N)cc2F)c(=O)[nH]c2ccnc(C(F)(F)F)c12
2 = C#Cc1nccc2[nH]c(=O)c(CC(=O)N[C@@H](C)c3ccc(F)cc3F)cc12
3 = Cc1cc(F)cc(F)c1[C@@H](C)NC(=O)Cc1c(C)c2c(C)nccc2[nH]c1=O (single isomer, unassigned)
input: Rank order required: Skeletal EC25, descending. Please respond by ranking the labels in the order requested.
output: 2, 3, 1

* * *

assayed-target: Porcine ventricle myofibrils (ventricular myosin ATPase) (Sus scrofa)
Construct: Myofibrils from porcine cardiac muscle was isolated from the left ventricle of Yucatan minipigs; tissue Exemplar Genetics; host or cells: left ventricle of Yucatan minipigs, myofibrils prepared in house
Sequence (P79293 whole entry): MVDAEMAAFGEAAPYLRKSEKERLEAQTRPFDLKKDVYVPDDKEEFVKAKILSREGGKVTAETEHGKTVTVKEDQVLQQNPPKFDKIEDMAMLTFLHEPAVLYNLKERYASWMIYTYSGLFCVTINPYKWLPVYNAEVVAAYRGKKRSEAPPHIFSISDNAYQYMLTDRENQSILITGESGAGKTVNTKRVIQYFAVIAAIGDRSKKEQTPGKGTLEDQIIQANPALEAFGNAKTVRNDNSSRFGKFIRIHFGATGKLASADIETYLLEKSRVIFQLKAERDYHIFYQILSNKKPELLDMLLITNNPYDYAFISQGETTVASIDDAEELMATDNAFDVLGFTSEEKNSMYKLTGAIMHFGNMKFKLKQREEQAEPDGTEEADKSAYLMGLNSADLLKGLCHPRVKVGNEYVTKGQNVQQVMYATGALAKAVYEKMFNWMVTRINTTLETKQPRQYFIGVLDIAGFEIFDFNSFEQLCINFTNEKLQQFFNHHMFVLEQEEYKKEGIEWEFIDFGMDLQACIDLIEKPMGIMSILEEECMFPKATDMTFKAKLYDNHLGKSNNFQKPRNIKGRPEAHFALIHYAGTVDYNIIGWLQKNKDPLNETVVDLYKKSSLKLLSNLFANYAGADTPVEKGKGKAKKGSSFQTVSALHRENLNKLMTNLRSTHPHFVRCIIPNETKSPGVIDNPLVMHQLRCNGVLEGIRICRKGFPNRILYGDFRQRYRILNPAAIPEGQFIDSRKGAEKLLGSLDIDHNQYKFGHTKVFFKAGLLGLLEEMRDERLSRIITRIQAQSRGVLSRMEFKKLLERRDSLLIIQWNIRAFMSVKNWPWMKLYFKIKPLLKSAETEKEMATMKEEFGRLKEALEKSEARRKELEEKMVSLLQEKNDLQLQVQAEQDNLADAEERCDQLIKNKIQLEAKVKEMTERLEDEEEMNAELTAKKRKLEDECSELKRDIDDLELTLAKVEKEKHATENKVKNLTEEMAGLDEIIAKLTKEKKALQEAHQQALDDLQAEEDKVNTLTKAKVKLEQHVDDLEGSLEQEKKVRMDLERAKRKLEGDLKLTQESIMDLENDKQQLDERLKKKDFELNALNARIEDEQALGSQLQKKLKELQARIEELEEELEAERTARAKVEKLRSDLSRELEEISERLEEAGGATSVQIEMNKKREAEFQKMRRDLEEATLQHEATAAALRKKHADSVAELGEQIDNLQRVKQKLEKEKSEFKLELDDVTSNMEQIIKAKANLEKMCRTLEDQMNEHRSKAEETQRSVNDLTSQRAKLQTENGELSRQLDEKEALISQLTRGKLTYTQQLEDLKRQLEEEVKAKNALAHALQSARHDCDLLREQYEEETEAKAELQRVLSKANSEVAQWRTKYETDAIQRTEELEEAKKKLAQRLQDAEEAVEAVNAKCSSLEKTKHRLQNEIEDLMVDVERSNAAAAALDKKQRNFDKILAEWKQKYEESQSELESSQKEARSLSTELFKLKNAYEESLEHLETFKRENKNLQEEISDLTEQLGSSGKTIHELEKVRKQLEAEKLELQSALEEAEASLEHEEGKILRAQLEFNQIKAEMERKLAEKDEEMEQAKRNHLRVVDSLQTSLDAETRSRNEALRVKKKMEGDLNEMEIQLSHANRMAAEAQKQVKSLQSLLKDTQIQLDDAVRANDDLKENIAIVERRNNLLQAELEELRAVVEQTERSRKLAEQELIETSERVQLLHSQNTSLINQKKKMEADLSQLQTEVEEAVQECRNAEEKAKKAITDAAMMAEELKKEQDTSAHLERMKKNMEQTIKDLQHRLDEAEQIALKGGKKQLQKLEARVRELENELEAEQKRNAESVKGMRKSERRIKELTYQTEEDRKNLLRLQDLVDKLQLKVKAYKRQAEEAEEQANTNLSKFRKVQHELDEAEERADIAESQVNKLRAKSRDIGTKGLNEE
experiment-notes: Myofibril ATPase assay, porcine ventricle myofibrils
Format: biochemical, porcine (Yucatan minipigs)
measurement-conditions: porcine ventricle myofibrils; Y75 value
readout-type: Ventricular EC25 (µM)

As a guide, the following entries are already answered.
{"columns": ["compound", "Ventricular EC25 / µM"],
 "data": [
  ["Cc1nccc2[nH]c(=O)c(CC(=O)N[C@@H](CO)c3ccc(C#N)cc3F)c(C)c12 (single isomer, unassigned)", 2.20],
  ["COc1ncc2[nH]c(=O)c(CC(=O)N[C@@H](C)c3ccc(F)cc3F)cc2n1", 100]
]}

A = Cc1nccc2[nH]c(=O)c(CC(=O)N[C@H](C)c3ccc(C#N)cc3F)c(C)c12 (single isomer, unassigned)
B = C[C@H](NC(=O)Cc1cc2c(OCC(F)F)nccc2[nH]c1=O)c1ccc(F)cc1F
C = Cc1c(CC(=O)N[C@H]2COc3cc(F)cc(F)c32)c(=O)[nH]c2ccnc(C#N)c12 (single isomer, unassigned)
D = Cc1nccc2[nH]c(=O)c(CC(=O)N[C@@H](C)c3ccc(F)cc3F)cc12
input: Rank order required: Ventricular EC25, descending. Please respond by ranking the labels in the order requested.
output: B, D, A, C
(B: 100.00 µM, D: 20.53 µM, A: 1.77 µM, C: 0.13 µM)

a = Cc1c(CC(=O)N[C@H](C)c2ccc(C#N)cn2)c(=O)[nH]c2ccc(OC(F)(F)F)nc12
b = Cc1nccc2[nH]c(=O)c(CC(=O)N[C@@H](C)c3ccc(C#N)cc3F)c(Cl)c12
input: Please indicate which has the smaller reported Ventricular EC25: a , or b . Answer = label.
output: b

1 = Cc1c(CC(=O)N[C@@H](C)c2ccc(F)cc2F)c(=O)[nH]c2ccnc(Nc3ccccc3)c12
2 = Cc1nccc2[nH]c(=O)c([C@@H](C)C(=O)N[C@@H](C)c3ncc(C#N)cc3F)c(C)c12 (single isomer, unassigned)
3 = Cc1nccc2[nH]c(=O)c(CC(=O)N[C@@H](C)c3ccc(F)cc3F)c(C)c12
4 = Cc1nccc2[nH]c(=O)c(C(F)(F)C(=O)N[C@@H](C)c3ccc(C#N)cc3F)c(C)c12 (single isomer, unassigned)
5 = C[C@H](NC(=O)[C@@H](C)c1cc2c(F)nccc2[nH]c1=O)c1ccc(F)cc1F (single isomer, unassigned)
input: Put the items in order so that reported Ventricular EC25 rises from first to last. Please respond by ranking the labels in the order requested.
output: 4, 3, 2, 5, 1
(4: 0.29 µM, 3: 0.64 µM, 2: 5.94 µM, 5: 36.08 µM, 1: 100.00 µM)
